System: Nalm6 B-ALL cell line
Assay: Cytotoxicity assay, Nalm6
Type: cell-based, human
Conditions: Homo sapiens, NALM-6, 96 h, four days in culture, Alamar blue assay or automated microscopy, ± SD, three experiments
METRIC: pIC50
One number for each entry, as −log10 of the molar value.

The examples below pair each entry with its known result.
>  <GIVEN SMILES>
CCN(CCCOc1ccc2c(Nc3cc(CC(=O)Nc4cccc(F)c4)n[nH]3)ncnc2c1)CCOP(=O)(O)O

>  <OBSERVED>
8.10

$$$$
>  <GIVEN SMILES>
Cc1nc(N)sc1-c1ccnc(Nc2ccc(N3CCOCC3)cc2)n1

>  <OBSERVED>
6.30

$$$$
>  <GIVEN SMILES>
Cc1cc(Nc2cc(N3CCN(C)CC3)nc(/C=C/c3ccccc3)n2)n[nH]1

>  <OBSERVED>
6.70

$$$$
>  <GIVEN SMILES>
CO[C@@H](C(=O)N1Cc2n[nH]c(NC(=O)c3ccc(N4CCN(C)CC4)cc3)c2C1)c1ccccc1

>  <OBSERVED>
8.05

$$$$
>  <GIVEN SMILES>
O=C(Nc1c[nH]nc1-c1nc2ccc(CN3CCOCC3)cc2[nH]1)NC1CC1

>  <OBSERVED>
8.22

$$$$
>  <GIVEN SMILES>
COc1cc(Nc2ncc3c(n2)-c2ccc(Cl)cc2C(c2c(F)cccc2OC)=NC3)ccc1C(=O)O

>  <OBSERVED>
8.22

$$$$

// switching to the query compound
INPUT: For the compound `Cc1cc(Nc2cc(N3CCN(C)CC3)nc(Sc3ccc(NC(=O)C4CC4)cc3)n2)[nH]n1` , what pIC50 is on record?
OUTPUT: 9.70

Data credit: paper PMC4105567
